Answer each item with its documented Z.CTG.
Test system: ISC-enriched organoids
Assay: Primary screen, 384-well 2.5-D organoid differentiation (ENR+CD, 6 days, Target Selective Inhibitor Library, vs whole-plate median): ATP (CellTiter-Glo 3D, CTG)
Conditions: primary screen, dose 0.08 uM, standard z score of FC
Response field accepts a number only; no unit should be typed.

INPUT: So what Z.CTG did "O=c1cc(-c2ccc(O)cc2)oc2cc(O)cc(O)c12" get with ISC-enriched organoids?
OUTPUT: 0.588

INPUT: What about CCN[C@H]1CN(CCCOC)S(=O)(=O)c2sc(S(N)(=O)=O)cc21 [Brinzolamide] ?
OUTPUT: −0.017

INPUT: What about C[C@H](Oc1cc(-c2cnn(C3CCNCC3)c2)cnc1N)c1c(Cl)ccc(F)c1Cl [(S)-crizotinib] ?
OUTPUT: 0.575

INPUT: What about COc1ccccc1Oc1c(NS(=O)(=O)c2ccc(C(C)(C)C)cc2)nc(-c2ncccn2)nc1OCCO [Bosentan Hydrate] ?
OUTPUT: 0.487

INPUT: What about "COc1cc(OC2CCN(C)CC2)ccc1Nc1ncc2c(n1)n(C1CCCC1)c(=O)n2C" ?
OUTPUT: −0.310

INPUT: What about "O=C(O)c1ccc(N2C(=O)/C(=C\c3ccc(-c4ccc([N+](=O)[O-])cc4)o3)C=C2c2ccccc2)cc1" ?
OUTPUT: 0.587

INPUT: What about "O=C1NC(=O)/C(=C/c2ccc(-c3ccc(F)cc3O)o2)S1" ?
OUTPUT: 0.333

INPUT: What about "CC1(C)CCC(CN2CCN(c3ccc(C(=O)NS(=O)(=O)c4ccc(NCC5CCOCC5)c([N+](=O)[O-])c4)c(Oc4cnc5[nH]ccc5c4)c3)CC2)=C(c2ccc(Cl)cc2)C1" ?
OUTPUT: 0.045

INPUT: What about "COc1c(O)cc2c(c1O)[C@@H]1O[C@H](CO)[C@@H](O)[C@H](O)[C@H]1OC2=O" ?
OUTPUT: 0.687

INPUT: What about CC(C)N(CC[C@H](c1ccccc1)c1cc(CO)ccc1O)C(C)C [5-hydroxymethyl Tolterodine (PNU 200577, 5-HMT, 5-HM)] ?
OUTPUT: −0.149

INPUT: What about C[C@H]1COC2(CCN(c3nc(=O)c4cc(C(F)(F)F)cc([N+](=O)[O-])c4s3)CC2)O1 (racemic) [BTZ043 Racemate] ?
OUTPUT: 1.187

INPUT: What about "CC(C)c1c(C(=O)Nc2ccccc2)c(-c2ccccc2)c(-c2ccc(F)cc2)n1CC[C@@H](O)C[C@@H](O)CC(=O)[O-].CC(C)c1c(C(=O)Nc2ccccc2)c(-c2ccccc2)c(-c2ccc(F)cc2)n1CC[C@@H](O)C[C@@H](O)CC(=O)[O-].[Ca+2]" ?
OUTPUT: −0.309

* * *

Answer each item with its documented Dose.FC.LYZ.S (log 2 fold change).
Tested on: ISC-enriched organoids
Test: Primary screen, 384-well 2.5-D organoid differentiation (ENR+CD, 6 days): carbachol-induced lysozyme secretion (LYZ.S)
Assay type: cell-based, murine
Details: Dose 2.00 uM; primary screen, vs plate median
Source text: High-throughput screening.
Response field accepts a number only; no unit should be typed.

INPUT: Need Dose.FC.LYZ.S (log 2 fold change), item "O=C1NC(=O)/C(=C/c2cccc(C(F)(F)F)c2)S1"
OUTPUT: −0.042

INPUT: What about "Cc1ccc(-n2nccn2)c(C(=O)N2CCN(c3nc4cc(Cl)ccc4o3)CC[C@H]2C)c1" ?
OUTPUT: 0.101

INPUT: What about "CO[C@H]1C[C@@H]2CC[C@@H](C)[C@@](O)(O2)C(=O)C(=O)N2CCCC[C@H]2C(=O)O[C@H]([C@H](C)C[C@@H]2CC[C@@H](OP(C)(C)=O)[C@H](OC)C2)CC(=O)[C@H](C)/C=C(\C)[C@@H](O)[C@@H](OC)C(=O)[C@H](C)C[C@H](C)/C=C/C=C/C=C/1C" ?
OUTPUT: 0.019

INPUT: What about "O=C(NNc1nc2cc(F)ccc2n2cccc12)c1cnccn1" ?
OUTPUT: −0.131

INPUT: What about "COc1cc(Br)c(Nc2nc(-c3c(C)nc4ncccn34)cs2)c(Br)c1" ?
OUTPUT: −0.289

INPUT: What about "CC(C)[C@H](O)C(=O)N[C@@H](C)C(=O)N[C@@H]1C(=O)N(C)CCc2ccccc21" ?
OUTPUT: −0.081
